Origin of values: patent US9090628B2

Molecular target: p110 delta (Homo sapiens (Human))
Sequence (O00329 whole entry, canonical isoform): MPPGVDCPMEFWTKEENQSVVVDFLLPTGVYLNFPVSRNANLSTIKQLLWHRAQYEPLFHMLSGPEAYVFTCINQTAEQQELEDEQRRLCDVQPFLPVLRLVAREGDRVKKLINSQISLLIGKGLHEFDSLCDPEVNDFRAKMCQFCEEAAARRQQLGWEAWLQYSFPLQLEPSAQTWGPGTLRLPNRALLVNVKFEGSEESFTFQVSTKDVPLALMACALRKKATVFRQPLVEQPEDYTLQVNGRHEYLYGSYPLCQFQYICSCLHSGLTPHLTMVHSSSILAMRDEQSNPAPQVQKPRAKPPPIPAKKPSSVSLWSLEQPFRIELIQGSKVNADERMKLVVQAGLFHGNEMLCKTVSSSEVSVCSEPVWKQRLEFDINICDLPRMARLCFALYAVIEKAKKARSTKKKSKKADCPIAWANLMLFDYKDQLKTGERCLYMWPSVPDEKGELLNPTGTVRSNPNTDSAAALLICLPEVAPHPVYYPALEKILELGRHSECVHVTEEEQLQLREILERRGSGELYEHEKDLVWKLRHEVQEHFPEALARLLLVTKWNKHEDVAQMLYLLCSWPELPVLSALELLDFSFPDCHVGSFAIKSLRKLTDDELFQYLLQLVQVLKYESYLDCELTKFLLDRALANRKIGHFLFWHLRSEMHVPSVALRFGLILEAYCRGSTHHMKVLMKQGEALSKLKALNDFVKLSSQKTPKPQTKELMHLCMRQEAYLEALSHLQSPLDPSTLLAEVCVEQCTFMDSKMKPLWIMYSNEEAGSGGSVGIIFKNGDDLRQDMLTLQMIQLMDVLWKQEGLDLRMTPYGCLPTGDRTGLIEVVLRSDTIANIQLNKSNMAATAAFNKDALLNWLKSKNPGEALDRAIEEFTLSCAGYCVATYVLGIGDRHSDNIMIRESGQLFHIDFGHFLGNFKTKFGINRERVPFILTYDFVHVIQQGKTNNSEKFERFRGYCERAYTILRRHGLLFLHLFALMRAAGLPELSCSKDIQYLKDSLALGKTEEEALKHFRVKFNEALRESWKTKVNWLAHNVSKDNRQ
Sequence (P27986 whole entry partner, canonical isoform): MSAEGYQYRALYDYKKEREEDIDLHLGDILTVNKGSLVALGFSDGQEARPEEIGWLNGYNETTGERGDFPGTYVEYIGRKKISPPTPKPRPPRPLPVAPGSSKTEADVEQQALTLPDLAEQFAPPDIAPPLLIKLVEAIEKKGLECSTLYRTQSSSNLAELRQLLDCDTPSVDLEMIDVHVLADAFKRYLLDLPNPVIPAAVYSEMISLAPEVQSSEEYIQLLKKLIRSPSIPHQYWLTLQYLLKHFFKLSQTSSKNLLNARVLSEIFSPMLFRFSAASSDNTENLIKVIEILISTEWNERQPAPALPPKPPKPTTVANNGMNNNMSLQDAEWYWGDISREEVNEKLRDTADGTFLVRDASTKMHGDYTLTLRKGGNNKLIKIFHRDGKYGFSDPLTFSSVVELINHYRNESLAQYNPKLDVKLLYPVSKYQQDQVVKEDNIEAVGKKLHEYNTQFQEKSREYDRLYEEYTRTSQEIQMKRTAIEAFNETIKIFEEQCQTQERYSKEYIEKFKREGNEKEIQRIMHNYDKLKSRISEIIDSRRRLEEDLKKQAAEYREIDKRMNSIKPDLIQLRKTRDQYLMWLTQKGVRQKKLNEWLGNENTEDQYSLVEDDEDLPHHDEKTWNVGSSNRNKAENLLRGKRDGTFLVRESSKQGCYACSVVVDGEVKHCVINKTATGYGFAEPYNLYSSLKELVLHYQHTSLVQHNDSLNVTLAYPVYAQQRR
Assay: PI3K isoform inhibition assay, p110 delta (fluorescence polarization displacement)
Method: PI3K enzymatic activity was assayed by measuring the amount of product phosphatidylinositol 3,4,5-phosphate (PIP3) formed from substrate 4,5 phosphatidylinositol 4,5-phosphate (PIP2) using a fluorescence polarization displacement assay. The decrease in fluorescence polarization of a fluorescent PIP3 probe is measured as it is displaced from a PIP3-binding protein GRP-1 detector by PI3K-catalyzed product. […]
Documented IC50 across a set of compounds
Hi! Could you send only the number? It should be in nM, unit omitted.

Query string: Fill in the blank: the reported IC50 of Cc1nc(-c2cn3c(n2)-c2ccc(-c4cn(C)nc4C4CCCN(C(C)C)C4)cc2OCC3)n(C(C)C)n1 (stereo not shown) is ____.
Result string: 0.878
